Each recorded value in this set is attributed to ChEMBL document CHEMBL1139723.

Reported pGI50 is given for each of the following compounds.
# Assay procedure: Cytotoxicity against NCI60 cell line
# Format: cell-based
# Condition summary: human
Reply with just the number.

1) COc1ccc(/C=C\c2cc(OC)c(OC)c(OC)c2)cc1O 7
2) COc1ccc(-c2nccn2-c2cc(OC)c(OC)c(OC)c2)cc1 5.34

pGI50 measured on COc1ccc(-c2cncn2-c2cc(OC)c(OC)c(OC)c2)cc1F = 7.4

pGI50 measured on COc1cc(-n2cncc2-c2ccc3ccccc3c2)cc(OC)c1OC = 7.14

pGI50 measured on COc1ccc(-c2nccn2-c2ccc(OC)cc2)cc1 = 4.76

pGI50 measured on COc1cc(-c2nccn2-c2ccc3ccccc3c2)cc(OC)c1OC = 6.86

pGI50 measured on COc1ccc(-c2cncn2-c2ccc(OC)cc2)cc1 = 4.8

pGI50 measured on COc1ccc(-n2ccnc2-c2cc(OC)c(OC)c(OC)c2)cc1 = 5.45

pGI50 measured on COc1ccc(-c2cncn2-c2cc(OC)c(OC)c(OC)c2)cc1 = 6.59

pGI50 measured on COc1cc(-n2ccnc2-c2ccc3ccccc3c2)cc(OC)c1OC = 6.82

----------
Reported GI50 is given for each of the following molecules.
# Assay procedure: Cytotoxicity against MDR HCT15 cells
# Type: cell-based
# Condition summary: human, MDR HCT-15 cells
Please give a number only; it is taken to be in nM.

GI50 measured on COc1ccc(-c2nccn2-c2cc(OC)c(OC)c(OC)c2)cc1 = 1150

GI50 measured on COc1ccc(-c2cncn2-c2cc(OC)c(OC)c(OC)c2)cc1 = 170

GI50 measured on COc1ccc(-c2cncn2-c2ccc(OC)cc2)cc1 = 19500

----------
# Assay procedure: Cytotoxicity against NCI60 cell line
# Type: cell-based
# Condition summary: human
Reported Log TGI is given for each of the following compounds.
Reply with just the number.

Take a look at these entries with their results.
1. COc1ccc(-c2cncn2-c2cc(OC)c(OC)c(OC)c2)cc1F -4.51
2. COc1ccc(-c2cncn2-c2ccc(OC)cc2)cc1 -4.32
3. COc1cc(-n2ccnc2-c2ccc3ccccc3c2)cc(OC)c1OC -4.68
4. COc1ccc(-c2nccn2-c2ccc(OC)cc2)cc1 -4.19
5. COc1ccc(/C=C\c2cc(OC)c(OC)c(OC)c2)cc1O -5.03

Log TGI measured on COc1cc(-c2nccn2-c2ccc3ccccc3c2)cc(OC)c1OC = -4.8

Log TGI measured on COc1cc(-n2cncc2-c2ccc3ccccc3c2)cc(OC)c1OC = -4.4

----------
# Assay procedure: Cytotoxicity against NCI60 cell line
# Format: cell-based
# Condition summary: human
Reported Log TGI is given for each of the following compounds.
Reply with just the number.

1) COc1ccc(-n2ccnc2-c2cc(OC)c(OC)c(OC)c2)cc1 -4.32

Log TGI measured on COc1ccc(-c2nccn2-c2cc(OC)c(OC)c(OC)c2)cc1 = -4.16

Log TGI measured on COc1ccc(-c2cncn2-c2cc(OC)c(OC)c(OC)c2)cc1 = -4.71
